- Test system: OVCAR-5
- Procedure text: NCI tumour cell line growth inhibition, 48 h
Active and inactive are the calls of the source. Rule as the data show it: active = GI50 up to about 1.1 µM and inactive = higher.
Select the matching outcome among active, inactive

{"columns": ["Compound", "Class assignment"],
 "data": [
  ["NC(=O)NC(=O)CCC(NS(=O)(=O)c1ccccc1)C(=O)NC(N)=O (configuration not stated)", "inactive"],
  ["CCOC(=O)C(Cl)(NC(=O)NC(Cl)(C(=O)OCC)C(F)(F)F)C(F)(F)F (configuration not stated)", "inactive"],
  ["COc1ccc(Nc2nc(N)c(C(=O)c3ccccc3)s2)cc1", "inactive"],
  ["CC(C)C(C)C(O)C(O)C(C)C1CCC2C3COC(=O)C4CC(O)C(O)CC4(C)C3CCC12C (configuration not stated)", "inactive"],
  ["Cc1c2c(n(C)c1C)C(=O)C1C(C2=O)C2(C)c3ccccc3C1(C)c1ccccc12 (configuration not stated)", "inactive"]
]}

Outcome? CO[C@@H]1C=C[C@@]23c4cc5c(cc4C(O)N(CC2O)C3C1)OCO5 (some centres not stated) inactive

And what about the compound CCCCCCCCCC1CC(=O)OC2=C1C(=O)CCC2 (configuration not stated) ? inactive

And what about the compound COc1cc(Br)cc2cc(-c3cn4c(n3)sc3ccccc34)c(=O)oc12 ? inactive

And what about the compound CC(C)(C)C(O)CC(O)(C(F)(F)F)C(F)(F)F (configuration not stated) ? inactive

And what about the compound CC(=O)Nc1ccc(S(=O)(=O)N/N=C/c2cc(I)cc([N+](=O)[O-])c2O)cc1 ? inactive

And what about the compound Cc1cccc(CP(Cc2cccc(C)c2)CC2(Cp3c4ccccc4c4ccccc43)COC2)c1 ? inactive

And what about the compound Oc1ccc2c(c1)OCC1c3ccccc3OC21 (configuration not stated) ? inactive

And what about the compound COC(=O)C1=C(c2ccc3c(c2)OCO3)OC(c2cc(OC)c(OC)c(OC)c2)C1 (configuration not stated) ? inactive

And what about the compound O=C(/C=C/c1ccc(Oc2cc(C(=O)/C=C/c3ccc(O)cc3)c(O)cc2O)cc1)c1ccc(O)cc1O ? inactive
